- TARGET_SYSTEM: Rhodesain (Trypanosoma brucei rhodesiense)
- Sequence (Q95PM0 whole entry): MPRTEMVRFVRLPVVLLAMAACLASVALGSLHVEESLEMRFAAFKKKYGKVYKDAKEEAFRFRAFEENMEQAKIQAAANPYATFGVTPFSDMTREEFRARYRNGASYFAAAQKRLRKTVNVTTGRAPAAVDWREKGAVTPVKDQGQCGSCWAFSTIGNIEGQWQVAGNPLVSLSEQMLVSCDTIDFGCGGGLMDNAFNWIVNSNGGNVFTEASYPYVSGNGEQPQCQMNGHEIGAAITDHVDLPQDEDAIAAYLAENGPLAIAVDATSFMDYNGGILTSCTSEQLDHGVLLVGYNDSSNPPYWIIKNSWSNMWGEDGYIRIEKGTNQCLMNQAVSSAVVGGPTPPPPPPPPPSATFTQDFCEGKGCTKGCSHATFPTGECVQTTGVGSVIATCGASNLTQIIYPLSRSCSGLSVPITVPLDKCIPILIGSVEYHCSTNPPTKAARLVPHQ
- TEST_DETAILS: Inhibition of recombinant Trypanosoma brucei rhodesain expressed in Pichia pastoris using Z-FR-AMC as substrate preincubated for 10 mins followed by substrate addition and measured at 12 sec interval for 5 mins by fluorimetric analysis
Consider the following compounds and their measured pIC50 readings.
The read-out pIC50 is expressed as -log10 of concentration in moles per litre.

Asked: Fill blank: measured pIC50 of the compound Cn1c(=O)n(C)c2cc(CNCCNc3ccnc4cc(Cl)ccc34)ccc21 is ____.
Given back: 4.42

Asked: Fill blank: measured pIC50 of the compound COCCNC(=O)c1ccc(OC2CCN(Cc3ccc(F)c(F)c3)CC2)c(Cl)c1 is ____.
Given back: 5.05

* * *

- TARGET_SYSTEM: cathepsin S (Homo sapiens)
- Sequence (P25774 whole entry): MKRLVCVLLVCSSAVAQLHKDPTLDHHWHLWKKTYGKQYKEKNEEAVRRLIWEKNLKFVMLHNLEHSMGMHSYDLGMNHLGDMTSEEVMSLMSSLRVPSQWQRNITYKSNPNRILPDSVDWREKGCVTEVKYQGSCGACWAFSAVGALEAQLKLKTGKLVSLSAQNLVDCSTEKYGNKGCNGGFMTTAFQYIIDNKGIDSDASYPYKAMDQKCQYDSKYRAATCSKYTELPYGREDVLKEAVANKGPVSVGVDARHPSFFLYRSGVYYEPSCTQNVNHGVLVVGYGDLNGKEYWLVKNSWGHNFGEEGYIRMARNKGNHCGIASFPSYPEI
- TEST_DETAILS: Inhibition of recombinant human cathepsin S expressed in Escherichia coli at 1 uM using Z-VVR-AMC as substrate and measured after 15 mins without preincubation by microplate reader based assay relative to control
- SETTINGS: probe Z-VVR-AMC
MEASURED_METRIC: inhibition at 0.25 h, 1 µM (%)
The answer is to be given in %; state only the numeric part.

Asked: Fill blank: measured inhibition at 0.25 h, 1 µM of the compound CC(C)C[C@H](NC(=O)[C@H]1O[C@@H]1C(=O)O)C(=O)NCCCCN=C(N)N is ____.
Given back: 99.9

* * *

- TARGET_SYSTEM: Cruzipain (Trypanosoma cruzi)
- TEST_DETAILS: Inhibition of recombinant Trypanosoma cruzi cruzain at 10 uM using Z-FR-AMC as substrate and measured at 12 sec interval for 5 mins without preincubation by fluorimetric analysis relative to control
MEASURED_METRIC: inhibition (%)
The answer is to be given in %; state only the numeric part.

Example results:
- COMPOUND: "CCOC(=O)c1c(C)n(-c2ccccc2)c2ccc(OC(=O)c3cc(OC)c(OC)c(OC)c3)cc12"
  inhibition, %: 10
- COMPOUND: "c1ccc(-c2ccc(-c3nc4ccccc4[nH]3)cc2)cc1"
  inhibition, %: 33
- COMPOUND: "CC(=O)c1ccc(NC(=O)CSc2nc(-c3ccccc3Cl)ns2)cc1"
  inhibition, %: 10
- COMPOUND: "Cn1c(=O)n(C)c2cc(CNCCNc3ccnc4cc(Cl)ccc34)ccc21"
  inhibition, %: 13
- COMPOUND: "FC(F)(F)c1cccc(CNC2CCN(CCc3ccccc3)CC2)c1"
  inhibition, %: 0

Now look at this entry.
Asked: Fill blank: measured inhibition of the compound CCOc1ccc(/C=C/c2nc(=O)c3ccccc3o2)cc1 is ____.
Given back: 10

* * *

- TARGET_SYSTEM: Cruzipain (Trypanosoma cruzi)
- TEST_DETAILS: Inhibition of recombinant Trypanosoma cruzi cruzain at 100 uM using Z-FR-AMC as substrate and measured at 12 sec interval for 5 mins without preincubation by fluorimetric analysis relative to control
Consider the following compounds and their measured inhibition readings.

Asked: Fill blank: measured inhibition of the compound c1ccc(CNc2nc(Nc3ccccc3)nc3ccccc23)cc1 is ____.
Given back: 91%

Asked: Fill blank: measured inhibition of the compound COCCNCC(O)Cn1c2ccc(Cl)cc2c2cc(Cl)ccc21 (stereo not given) is ____.
Given back: 50%

Asked: Fill blank: measured inhibition of the compound FC(F)(F)c1cccc(CNC2CCN(CCc3ccccc3)CC2)c1 is ____.
Given back: 7%

Asked: Fill blank: measured inhibition of the compound COCCNC(=O)c1ccc(OC2CCN(Cc3ccc(F)c(F)c3)CC2)c(Cl)c1 is ____.
Given back: 29%

Asked: Fill blank: measured inhibition of the compound Cc1cc(Nc2ccc(C)c(Cl)c2)n2nc(C(F)(F)F)nc2n1 is ____.
Given back: 25%

* * *

- TARGET_SYSTEM: Cruzipain (Trypanosoma cruzi) (UniProt P25779)
- Sequence (P25779 123-467 limits assumed): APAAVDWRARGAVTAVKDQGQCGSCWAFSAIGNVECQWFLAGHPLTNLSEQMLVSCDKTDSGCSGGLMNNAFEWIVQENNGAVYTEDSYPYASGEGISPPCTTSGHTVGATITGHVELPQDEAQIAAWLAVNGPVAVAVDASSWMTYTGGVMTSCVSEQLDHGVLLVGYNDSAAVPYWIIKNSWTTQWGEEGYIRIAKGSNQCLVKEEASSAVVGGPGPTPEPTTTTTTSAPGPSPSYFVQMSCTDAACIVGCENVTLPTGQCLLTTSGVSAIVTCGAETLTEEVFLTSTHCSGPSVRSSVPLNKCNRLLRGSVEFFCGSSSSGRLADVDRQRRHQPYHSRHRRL
- TEST_DETAILS: Inhibition of recombinant Trypanosoma cruzi cruzain at 10 uM using Z-FR-AMC as substrate preincubated for 10 mins followed by substrate addition and measured at 12 sec interval for 5 mins by fluorimetric analysis relative to control
- SETTINGS: time 15.0 min
Note to self: values exactly at 20% are yes (1). So inhibition at or above 20% is yes (1), below is no (0).

- COMPOUND: "CCOc1ccc(/C=C/c2nc(=O)c3ccccc3o2)cc1"
  GROUP_LABEL: "no (0)"
- COMPOUND: "Cn1c(=O)n(C)c2cc(CNCCNc3ccnc4cc(Cl)ccc34)ccc21"
  GROUP_LABEL: "no (0)"
- COMPOUND: "Cc1nc2ccccc2c(O)c1CC=C(Cl)Cl"
  GROUP_LABEL: "no (0)"

Asked: # check: inhibition of Cl.Cl.Clc1cc(Br)ccc1-c1ccc(CNCC2CCNCC2)o1 is greater than or equal to 20%
Given back: no (0)

Asked: # check: inhibition of c1ccc(-c2ccc(-c3nc4ccccc4[nH]3)cc2)cc1 is greater than or equal to 20%
Given back: yes (1)

Asked: # check: inhibition of c1ccc(CNc2nc(Nc3ccccc3)nc3ccccc23)cc1 is greater than or equal to 20%
Given back: yes (1)

Asked: # check: inhibition of CCOc1cccc(C(=O)Nc2ccc(-c3nc4ccccc4[nH]3)cc2)c1 is greater than or equal to 20%
Given back: yes (1)

Asked: # check: inhibition of CCOC(=O)c1c(C)n(-c2ccccc2)c2ccc(OC(=O)c3cc(OC)c(OC)c(OC)c3)cc12 is greater than or equal to 20%
Given back: no (0)

Asked: # check: inhibition of COCCNCC(O)Cn1c2ccc(Cl)cc2c2cc(Cl)ccc21 (stereo unspecified) is greater than or equal to 20%
Given back: yes (1)

Asked: # check: inhibition of Cc1cc(Nc2ccc(C)c(Cl)c2)n2nc(C(F)(F)F)nc2n1 is greater than or equal to 20%
Given back: no (0)

Asked: # check: inhibition of COc1ccc2sc(N(Cc3cccnc3)C(=O)c3ccc(C#N)cc3)nc2c1 is greater than or equal to 20%
Given back: no (0)

* * *

- TARGET_SYSTEM: UniProt:P00787
- Sequence (P00787 whole entry): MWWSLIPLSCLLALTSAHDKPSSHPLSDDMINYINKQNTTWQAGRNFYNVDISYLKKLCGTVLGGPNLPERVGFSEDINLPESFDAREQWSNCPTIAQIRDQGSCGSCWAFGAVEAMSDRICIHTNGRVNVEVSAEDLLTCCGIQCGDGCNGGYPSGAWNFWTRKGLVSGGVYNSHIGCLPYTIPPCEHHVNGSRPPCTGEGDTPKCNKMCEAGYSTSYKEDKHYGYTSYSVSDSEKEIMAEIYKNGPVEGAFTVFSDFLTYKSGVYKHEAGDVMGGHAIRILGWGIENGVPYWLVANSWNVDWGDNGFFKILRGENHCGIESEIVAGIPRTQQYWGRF
- TEST_DETAILS: Inhibition of rat cathepsin B at 50 uM using Z-FR-AMC as substrate preincubated for 5 mins followed by substrate addition and measured after 15 mins by microplate reader based assay relative to control
- SETTINGS: probe Z-FR-AMC
MEASURED_METRIC: inhibition at 0.25 h, 50 µM

Asked: Fill blank: measured inhibition at 0.25 h, 50 µM of the compound c1ccc(CNc2nc(Nc3ccccc3)nc3ccccc23)cc1 is ____.
Given back: 27.5%

* * *

- TARGET_SYSTEM: Cruzipain (Trypanosoma cruzi, UniProt P25779)
- Sequence (P25779 whole entry): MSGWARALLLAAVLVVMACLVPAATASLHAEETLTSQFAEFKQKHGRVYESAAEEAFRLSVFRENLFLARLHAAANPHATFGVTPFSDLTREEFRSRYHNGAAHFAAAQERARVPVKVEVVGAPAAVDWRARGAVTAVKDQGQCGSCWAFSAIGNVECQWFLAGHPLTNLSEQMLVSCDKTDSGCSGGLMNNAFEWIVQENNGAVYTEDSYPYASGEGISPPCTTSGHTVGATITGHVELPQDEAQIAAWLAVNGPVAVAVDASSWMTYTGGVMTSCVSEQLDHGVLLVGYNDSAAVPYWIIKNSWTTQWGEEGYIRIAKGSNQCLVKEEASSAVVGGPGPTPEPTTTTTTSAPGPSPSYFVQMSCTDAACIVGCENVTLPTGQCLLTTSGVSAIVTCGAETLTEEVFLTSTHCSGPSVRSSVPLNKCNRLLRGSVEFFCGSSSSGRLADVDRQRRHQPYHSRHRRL
- TEST_DETAILS: Inhibition of recombinant Trypanosoma cruzi cruzain using Z-FR-AMC as substrate and measured at 12 sec interval for 5 mins without preincubation by fluorimetric analysis
MEASURED_METRIC: IC50 (µM)
The answer is to be given in µM; state only the numeric part.

- COMPOUND_STRUCTURE: "Cl.Cl.Clc1cc(Br)ccc1-c1ccc(CNCC2CCNCC2)o1"
  TARGET_SYSTEM: "Cruzipain (Trypanosoma cruzi, UniProt P25779)"
  MEAS_VALUE: 26
- COMPOUND_STRUCTURE: "CCOc1cccc(C(=O)Nc2ccc(-c3nc4ccccc4[nH]3)cc2)c1"
  TARGET_SYSTEM: "Cruzipain (Trypanosoma cruzi, UniProt P25779)"
  MEAS_VALUE: 2.6
- COMPOUND_STRUCTURE: "c1ccc(CNc2nc(Nc3ccccc3)nc3ccccc23)cc1"
  TARGET_SYSTEM: "Cruzipain (Trypanosoma cruzi, UniProt P25779)"
  MEAS_VALUE: 9

Now look at this entry.
Asked: Fill blank: measured IC50 of the compound Cn1c(=O)n(C)c2cc(CNCCNc3ccnc4cc(Cl)ccc34)ccc21 is ____.
Given back: 145

* * *

- TARGET_SYSTEM: Rhodesain (Trypanosoma brucei rhodesiense) (UniProt Q95PM0)
- TEST_DETAILS: Inhibition of recombinant Trypanosoma brucei rhodesain expressed in Pichia pastoris at 100 uM using Z-FR-AMC as substrate preincubated for 10 mins followed by substrate addition and measured at 12 sec interval for 5 mins by fluorimetric analysis relative to control
- SETTINGS: time 15.0 min
Consider the following compounds and their measured inhibition readings.
Remember to follow the number with its unit.

Example results:
- COMPOUND: "FC(F)(F)c1cccc(CNC2CCN(CCc3ccccc3)CC2)c1"
  TARGET_SYSTEM: "Rhodesain (Trypanosoma brucei rhodesiense) (UniProt Q95PM0)"
  MEAS_VALUE: "14%"
- COMPOUND: "COCCNCC(O)Cn1c2ccc(Cl)cc2c2cc(Cl)ccc21 (stereo not given)"
  TARGET_SYSTEM: "Rhodesain (Trypanosoma brucei rhodesiense) (UniProt Q95PM0)"
  MEAS_VALUE: "48%"
- COMPOUND: "COCCNC(=O)c1ccc(OC2CCN(Cc3ccc(F)c(F)c3)CC2)c(Cl)c1"
  TARGET_SYSTEM: "Rhodesain (Trypanosoma brucei rhodesiense) (UniProt Q95PM0)"
  MEAS_VALUE: "75%"

Asked: Fill blank: measured inhibition of the compound Cc1cc(Nc2ccc(C)c(Cl)c2)n2nc(C(F)(F)F)nc2n1 is ____.
Given back: 15%

Asked: Fill blank: measured inhibition of the compound c1ccc(CNc2nc(Nc3ccccc3)nc3ccccc23)cc1 is ____.
Given back: 94%

Data provenance is ChEMBL document CHEMBL4665666.
